Molecular target: C5a anaphylatoxin chemotactic receptor 1 (Homo sapiens, UniProt P21730)
Sequence (P21730 whole entry): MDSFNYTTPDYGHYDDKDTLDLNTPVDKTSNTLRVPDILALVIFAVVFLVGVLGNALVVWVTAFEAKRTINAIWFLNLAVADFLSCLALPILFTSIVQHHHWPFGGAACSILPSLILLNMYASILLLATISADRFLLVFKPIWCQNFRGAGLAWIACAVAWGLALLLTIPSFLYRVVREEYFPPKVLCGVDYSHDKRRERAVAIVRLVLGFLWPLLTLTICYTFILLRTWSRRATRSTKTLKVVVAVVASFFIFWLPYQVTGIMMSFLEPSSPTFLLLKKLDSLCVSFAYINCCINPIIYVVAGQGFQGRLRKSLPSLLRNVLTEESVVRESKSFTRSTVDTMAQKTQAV
Assay: Displacement of [125I]C5a from C5a receptor in cAMP differentiated human U937 cells by filtration assay
Format: cell-based, U-937
Readout Type: IC50 (nM)
Provide only the numeric value, understood in nM.

CCc1ccccc1C(=O)N(C1CCC2(CC1)OCCO2)[C@H](CCN1CCOCC1)Cc1ccc(Cl)cc1    200
CCOC(=O)C(Cc1ccc(Cl)cc1)N(C(=O)c1cccc2ccccc12)C1CCC2(CC1)OCCO2 (racemic)    3

Now examine the next entry.
Lookup: Please report IC50 for the following molecule: CC(=O)C(Cc1ccc(Cl)cc1)N(C(=O)c1csc2ccccc12)C1CCC2(CC1)OCCO2 (racemic)
Found: 45

* * *

Molecular target: C5a anaphylatoxin chemotactic receptor 1 (Homo sapiens)
Assay: Displacement of [125I]C5a from C5a receptor in cAMP differentiated human U937 cells by filtration assay
Assay type: cell-based, U-937
# Lookup of reported IC50 keyed by entry
Respond with the figure and its unit, in that order.

COC(=O)C(Cc1ccc(Cl)cc1)N(C(=O)c1csc2ccccc12)C1CCC2(CC1)OCCO2 (racemic)    15 nM

Lookup: Please report IC50 for the following compound: CCc1ccccc1C(=O)N(C1CCC2(CC1)OCCO2)C(Cc1ccc(Cl)cc1)C(=O)O (racemic)
Found: 350 nM

Lookup: Please report IC50 for the following compound: Clc1ccc2nc(-c3csc4ccccc34)n(C3CCC4(CC3)OCCO4)c2c1Cl
Found: 790 nM

* * *

Assay: Lipophilicity, log D of the compound
Type: physicochemical
Conditions: octanol/water
Readout Type: logD

Lookup: Please report logD for the following molecule: O=C(Nc1ccc(F)cc1F)N1CCC(N(CCc2ccc(Cl)cc2)C(=O)c2csc3ccccc23)CC1
Found: < 4

* * *

Target: C5a anaphylatoxin chemotactic receptor 1 (Homo sapiens, UniProt P21730)
Experiment: Displacement of [125I]C5a from C5a receptor in cAMP differentiated human U937 cells by filtration assay
Assay type: cell-based, U-937
Readout Type: pIC50
Scale explanation: pIC50 corresponds to minus log10 of a concentration expressed in moles per litre.

For orientation, consider the following solved cases.
c1ccc2c(-c3ncc(CC4CCCCC4)n3C3CCC4(CC3)OCCO4)csc2c1    7.33
CN(C)Cc1ccccc1C(=O)N(CCc1ccc(Cl)cc1)C1CCC2(CC1)OCCO2    6.30

Lookup: Please report pIC50 for the following molecule: CCc1ccccc1C(=O)N(C1CCC2(CC1)OCCO2)C(Cc1ccc(Cl)cc1)CN(C)C (racemic)
Found: 7.57

Lookup: Please report pIC50 for the following molecule: CCc1ccccc1C(=O)N(C1CCC2(CC1)OCCO2)C(Cc1ccc(Cl)cc1)c1noc(C)n1 (racemic)
Found: 8.10

Lookup: Please report pIC50 for the following molecule: COCC(Cc1ccc(Cl)cc1)N(C(=O)c1csc2ccccc12)C1CCC2(CC1)OCCO2 (racemic)
Found: 7.92

Lookup: Please report pIC50 for the following molecule: Clc1ccc(Cc2cnc(-c3csc4ccccc34)n2C2CCC3(CC2)OCCO3)cc1
Found: 6.30

Lookup: Please report pIC50 for the following molecule: CN(C)CC(Cc1ccc(Cl)cc1)N(C(=O)c1cccc2ccccc12)C1CCC2(CC1)OCCO2 (racemic)
Found: 7.89
